target.or.test.system: T1, human Mdm2 (1–125) (human)
T1 construct: Mdm2, human, residues 1-125; the stretch after the TEV site ENLYFQG of the fusion protein; No cleavage of the tags is described, so it is open whether the fusion or cleaved Mdm2 stood in the FP and ITC assays; also called purified recombinant human Mdm2 protein (amino acids 1–125); source: E. coli BL21 (DE3) Rosetta T1R, purified (Ni-NTA, gel filtration)
T1 sequence (chain, as listed by the source): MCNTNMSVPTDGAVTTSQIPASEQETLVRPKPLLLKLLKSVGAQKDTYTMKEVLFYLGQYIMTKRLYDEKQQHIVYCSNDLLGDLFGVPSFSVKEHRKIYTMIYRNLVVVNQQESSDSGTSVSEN
assay.info: fluorescence polarisation; competition: unlabeled peptide titrated against the complex of 250 nM Mdm2 (1–125) and 50 nM FAM-labeled 12/1 peptide; apparent Kd from the tracer's Kd of […] nM; PBS pH 7.4, 0.1% Tween 20; triplicate
test.conditions: both partners purified
Bridge positions count the residues as written; N and C are the ends. Square brackets hold non-standard residues; d marks the D form. Primed or numbered codes have the meaning given here. Lys(N3) = [N-]=[N+]=NCCCC[C@H](N)C(=O)O; NMeQ = CN[C@@H](CCC(N)=O)C(=O)O; R8 = C=CCCCCCC[C@@](C)(N)C(=O)O; S5 = C=CCCC[C@](C)(N)C(=O)O; Cba′ = not defined here; βAla = NCCC(=O)O
For each record, write down the corresponding Kd.
One number for each entry, in nM.

{"binder": "Ac-[Lys(N3)][βAla]LTF[R8]EYWAP[Cba′][S5]SAA-NH2 (staple 6-13; reading uncertain) [MP-081 Q9P]", "unit.descriptor": "nM", "Kd": 77.1}
{"binder": "Ac-[Lys(N3)][βAla]LTF[R8]EYWA[NMeQ][Cba′][S5]SAA-NH2 (staple 6-13; reading uncertain) [MP-081 Q9(N-methyl L-Gln)]", "unit.descriptor": "nM", "Kd": 211}

Now for the binder whose Kd we want.
Please list Kd recorded for the binder Ac-[Lys(N3)][βAla]GTF[R8]EYWAQ[Cba′][S5]SAA-NH2 (staple 6-13; reading uncertain) [MP-081 L1G] 22.1

All figures here come from paper PMC6632053.
